SYSTEM NAME: Btk enzyme (His-tagged, full-length) (Homo sapiens, UniProt Q06187)
Construct: 5-10 nM Btk enzyme (His-tagged, full-length); His
Sequence (Q06187 whole entry): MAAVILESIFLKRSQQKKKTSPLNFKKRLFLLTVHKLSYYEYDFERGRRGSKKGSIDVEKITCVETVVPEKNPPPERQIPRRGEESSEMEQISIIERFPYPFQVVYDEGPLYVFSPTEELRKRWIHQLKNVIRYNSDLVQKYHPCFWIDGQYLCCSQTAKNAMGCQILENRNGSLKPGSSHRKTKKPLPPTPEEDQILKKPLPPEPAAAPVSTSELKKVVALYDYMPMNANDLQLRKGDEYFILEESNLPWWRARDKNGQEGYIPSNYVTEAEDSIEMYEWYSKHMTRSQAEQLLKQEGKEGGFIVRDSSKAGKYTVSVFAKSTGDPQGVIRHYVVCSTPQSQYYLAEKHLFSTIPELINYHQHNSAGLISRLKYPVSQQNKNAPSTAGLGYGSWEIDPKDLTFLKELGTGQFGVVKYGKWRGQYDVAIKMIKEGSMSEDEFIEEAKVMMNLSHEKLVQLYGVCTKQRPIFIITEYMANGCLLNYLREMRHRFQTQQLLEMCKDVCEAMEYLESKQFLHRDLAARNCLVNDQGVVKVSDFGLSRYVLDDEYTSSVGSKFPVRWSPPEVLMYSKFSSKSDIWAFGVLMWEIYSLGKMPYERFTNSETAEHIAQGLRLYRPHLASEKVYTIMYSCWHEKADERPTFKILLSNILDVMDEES
ASSAY EXPLANATION: Bruton's Tyrosine Kinase (Btk) Inhibition Assay (33P filtration capture)
Format: biochemical
ASSAY SETUP: Bruton's tyrosine kinase Assay (Example 34); Table I pyridazinones; 100 μM ATP
READOUT KIND: IC50 (nM)

{"COMPOUND": "Cn1nc(-c2cccc(CC(=O)OCCOC(C)(C)C)c2)cc(Nc2ccc(C(=O)N3CCOCC3)cn2)c1=O", "UNITS SYMBOL": "nM", "IC50": 2200}
{"COMPOUND": "Cn1nc(-c2cccc(CC(=O)NCCC(C)(C)C)c2)cc(Nc2ccc(C(=O)N3CCOCC3)cn2)c1=O", "UNITS SYMBOL": "nM", "IC50": 6290}

(I) Cn1nc(-c2cccc(CC(=O)N3Cc4ccccc4C3)c2)cc(Nc2ccc(C(=O)N3CCOCC3)cn2)c1=O
(II) CC(=O)N1CCN(C(=O)Cc2cccc(-c3cc(Nc4ccc(C(=O)N5CCOCC5)cn4)c(=O)n(C)n3)c2)CC1
q: I'm curious whether I or II has the smaller IC50 number. Which is it? Answer format: the label of the selected item.
a: I

====

READOUT KIND: melting point

{"COMPOUND": "Cc1c(NC(=O)c2ccc(C(C)(C)C)cc2)cccc1-c1cc(NC(=O)Nc2ccccc2)c(=O)n(C)c1 [II-8]", "melting point": "219 to 220 °C"}
{"COMPOUND": "Cn1nc(-c2cccc(CC(=O)OCCOC(C)(C)C)c2)cc(Nc2ccc(C(=O)N3CCOCC3)cn2)c1=O [Compound I-36]", "melting point": "80 to 81 °C"}
{"COMPOUND": "Cc1c(NC(=O)c2ccc(C(C)(C)C)cc2)cccc1-c1cc(Nc2ccnc(N3CCC(CO)C3)n2)c(=O)n(C)n1 (stereo not drawn) [Compound I-20]", "melting point": "210 to 211 °C"}
{"COMPOUND": "Cn1nc(-c2cccc(CC(=O)NCCOC(C)(C)C)c2)cc(Nc2ccc(C(=O)N3CCOCC3)cn2)c1=O [Compound I-32]", "melting point": "220 to 221 °C"}
{"COMPOUND": "CC(C)N1CCN(C(=O)Cc2cccc(-c3cc(Nc4ccc(C(=O)N5CCOCC5)cn4)c(=O)n(C)n3)c2)CC1 [Compound I-41]", "melting point": "209 to 210 °C"}
{"COMPOUND": "Cc1c(NC(=O)c2ccc(C(C)(C)C)cc2)cccc1-c1cc(Nc2ccccn2)c(=O)n(C)n1 [Compound I-3]", "melting point": "248.5 to 249.3 °C"}

q: Consider the compound shown here: Cc1c(NC(=O)c2ccc(C(C)(C)C)cc2)cccc1-c1cc(NC(=O)NCC(F)(F)F)c(=O)n(C)c1 [II-7] What is its recorded melting point?
a: 258 to 259 °C

q: Consider the compound shown here: CNC(=O)Nc1cc(-c2cccc(CC(=O)N3CC(CC(C)(C)O)C3)c2)cn(C)c1=O [II-47] What is its recorded melting point?
a: 113 to 114 °C

q: Consider the compound shown here: CNC(=O)Nc1cc(-c2cccc(CC(=O)N3Cc4ccccc4C3)c2)cn(C)c1=O [II-45] What is its recorded melting point?
a: 251 to 252 °C

====

SYSTEM NAME: Btk enzyme (His-tagged, full-length) (Homo sapiens, UniProt Q06187)
Construct: 5-10 nM Btk enzyme (His-tagged, full-length); His
ASSAY EXPLANATION: Bruton's Tyrosine Kinase (Btk) Inhibition Assay (33P filtration capture)
Format: biochemical
ASSAY SETUP: Bruton's tyrosine kinase Assay (Example 34); Table II pyridinones; 100 μM ATP
pIC50: −log10 of the molar value.
READOUT KIND: pIC50

Examples with answers:
{"MOLECULE": "Cn1cc(-c2cccc(NC(=O)c3ccc(C4CC4)cc3)c2CO)cc(NC(=O)NCCc2ccccn2)c1=O", "EXPERIMENTAL VALUE": 6.67}
{"MOLECULE": "CNC(=O)Nc1cc(-c2cccc(CC(=O)N3CC(CC(C)(C)O)C3)c2)cn(C)c1=O", "EXPERIMENTAL VALUE": 4.26}
{"MOLECULE": "CNC(=O)Nc1cc(-c2cccc(NC(=O)N3Cc4ccccc4C3)c2C)cn(C)c1=O", "EXPERIMENTAL VALUE": 6.18}
{"MOLECULE": "Cn1cc(-c2cccc(NC(=O)c3ccc(C4CC4)cc3)c2CO)cc(NC(=O)NCCCN2CCOCC2)c1=O", "EXPERIMENTAL VALUE": 7.27}
{"MOLECULE": "Cn1cc(-c2cccc(NC(=O)c3ccc(C4(F)CC4)cc3)c2CO)cc(Nc2ccccn2)c1=O", "EXPERIMENTAL VALUE": 7.30}

(I) CC(O)CNC(=O)Nc1cc(-c2cccc(NC(=O)c3ccc(C4CC4)cc3)c2CO)cn(C)c1=O (stereo not drawn)
(II) CCNC(=O)Nc1cc(-c2cccc(NC(=O)c3ccc(C(C)(C)C)cc3)c2C)cn(C)c1=O
(III) CNC(=O)Nc1cc(-c2cccc(NC(=O)c3cc4c(s3)CCCC4)c2C)cn(C)c1=O
(IV) COC(C)(C)c1ccc(C(=O)Nc2cccc(-c3cc(Nc4ccc(C(=O)N5CCOCC5)cn4)c(=O)n(C)c3)c2CO)cc1
q: Sort the 4 molecules by pIC50; largest first, smallest last. # output: labels, in the requested order
a: II, IV, III, I
(II: 7.89, IV: 7.62, III: 7.40, I: 7.17)

====

SYSTEM NAME: Btk enzyme (His-tagged, full-length) (Homo sapiens)
Construct: 5-10 nM Btk enzyme (His-tagged, full-length); His
ASSAY EXPLANATION: Bruton's Tyrosine Kinase (Btk) Inhibition Assay (33P filtration capture)
Assay type: biochemical
ASSAY SETUP: Bruton's tyrosine kinase Assay (Example 34); Table I pyridazinones; 100 μM ATP
READOUT KIND: IC50 (nM)

{"COMPOUND STRUCTURE STRING": "COc1nccc(Nc2cc(-c3cccc(NC(=O)c4ccc(C(C)(C)C)cc4)c3C)nn(C)c2=O)n1", "IC50 (nM)": 104}

(I) COc1cc(C(C)(C)C)ccc1C(=O)Nc1cccc(-c2cc(Nc3ccc(C(=O)N4CCOCC4)cn3)c(=O)n(C)n2)c1
(II) Cc1c(NC(=O)c2ccc(C(C)(C)C)cc2)cccc1-c1cc(Nc2ccnc(S(C)(=O)=O)n2)c(=O)n(C)n1
q: I'm curious whether I or II has the smaller IC50 number. Which is it? Answer format: the label of the selected item.
a: I

(A) CSc1nccc(Nc2cc(-c3cccc(NC(=O)c4ccc(C(C)(C)C)cc4)c3C)nn(C)c2=O)n1
(B) COC(=O)c1ccc(Nc2cc(-c3cccc(NC(=O)c4ccc(C(C)(C)C)cc4)c3C)nn(C)c2=O)nc1
q: Parameter check: reported IC50 is higher for which label, A or B ? Answer format: the label of the selected item.
a: B

(I) Cn1nc(-c2cccc(CC(=O)c3ccc(C(C)(C)C)cc3)c2)cc(Nc2ccc(C(=O)N3CCOCC3)cn2)c1=O
(II) Cn1nc(-c2cccc(NC(=O)c3ccc(C(C)(C)C)cc3)c2)cc(Nc2ccc(C(=O)N3CCOCC3)cn2)c1=O
q: I'm curious whether I or II has the smaller IC50 number. Which is it? Answer format: the label of the selected item.
a: II

(P) CCNC(=O)Nc1cc(-c2cccc(NC(=O)c3ccc(C(C)(C)C)cc3)c2C)nn(C)c1=O
(Q) Cc1c(NC(=O)c2ccc(C(C)(C)C)cc2)cccc1-c1cc(Nc2ccnc(N3CCCC3)n2)c(=O)n(C)n1
(R) Cn1nc(-c2cccc(CC(=O)N3CCCC3)c2)cc(Nc2ccc(C(=O)N3CCOCC3)cn2)c1=O
(S) Cc1c(NC(=O)N2CC(OC(C)(C)C)C2)cccc1-c1cc(Nc2ccc(C(=O)N3CCOCC3)cn2)c(=O)n(C)n1
q: Ascending by IC50, please: list the compounds accordingly. # output: labels, in the requested order
a: P, S, Q, R

====

SYSTEM NAME: Btk enzyme (His-tagged, full-length) (Homo sapiens)
Construct: 5-10 nM Btk enzyme (His-tagged, full-length); His
ASSAY EXPLANATION: Bruton's Tyrosine Kinase (Btk) Inhibition Assay (33P filtration capture)
Format: biochemical
ASSAY SETUP: Bruton's tyrosine kinase Assay (Example 34); Table II pyridinones; 100 μM ATP
pIC50: −log10 of the molar value.
READOUT KIND: pIC50

Examples with answers:
{"COMPOUND": "CNC(=O)Nc1cc(-c2cccc(CC(=O)N3Cc4ccc(F)cc4C3)c2)cn(C)c1=O [II-46]", "SYSTEM NAME": "Btk enzyme (His-tagged, full-length) (Homo sapiens)", "EXPERIMENTAL VALUE": 5.46}
{"COMPOUND": "Cn1cc(-c2cccc(NC(=O)c3ccc(C(F)(F)F)cc3)c2CO)cc(Nc2ccc(C(=O)N3CCOCC3)cn2)c1=O [II-55]", "SYSTEM NAME": "Btk enzyme (His-tagged, full-length) (Homo sapiens)", "EXPERIMENTAL VALUE": 7.07}
{"COMPOUND": "CNC(=O)Nc1cc(-c2cccc(CC(=O)N3Cc4ccccc4C3)c2)cn(C)c1=O [II-45]", "SYSTEM NAME": "Btk enzyme (His-tagged, full-length) (Homo sapiens)", "EXPERIMENTAL VALUE": 5.81}
{"COMPOUND": "Cn1cc(-c2cccc(NC(=O)c3ccc(N4CCCCC4)cc3)c2CO)cc(Nc2ccc(C(=O)N3CCOCC3)cn2)c1=O [II-97]", "SYSTEM NAME": "Btk enzyme (His-tagged, full-length) (Homo sapiens)", "EXPERIMENTAL VALUE": 6.94}
{"COMPOUND": "CN(C)CCCNC(=O)Nc1cc(-c2cccc(NC(=O)c3ccc(C4CC4)cc3)c2CO)cn(C)c1=O [II-80]", "SYSTEM NAME": "Btk enzyme (His-tagged, full-length) (Homo sapiens)", "EXPERIMENTAL VALUE": 7.37}

(I) Cn1cc(-c2cccc(NC(=O)c3ccc(C(Cl)(Cl)Cl)cc3)c2CO)cc(Nc2ccc(C(=O)N3CCOCC3)cn2)c1=O [II-74]
(II) Cc1c(NC(=O)c2ccc(C(C)(C)C)cc2)cccc1-c1cc(NC(=O)NCCCN(C)C)c(=O)n(C)c1 [II-22]
(III) CC(C)n1nc(Nc2cc(-c3cccc(NC(=O)c4ccc(C5CC5)cc4)c3CO)cn(C)c2=O)ccc1=O [II-88]
(IV) Cc1c(NC(=O)c2ccc(C(C)(C)C)cc2)cccc1-c1cc(NC(=O)NCC(F)(F)F)c(=O)n(C)c1 [II-7]
(V) Cc1c(NC(=O)c2ccc(C(C)(C)C)cc2)cccc1-c1cc(NC(=O)Nc2ccccc2)c(=O)n(C)c1 [II-8]
q: Ascending by pIC50, please: list the compounds accordingly. # output: labels, in the requested order
a: V, IV, III, I, II
(V: 5.14, IV: 6.06, III: 6.85, I: 7.30, II: 7.54)
